Endpoint name: melting point

Some molecules with recorded melting point:
>>> endpoint_result("COc1cccc(NC(=O)c2ccc3ccccc3c2)c1 [Compound 32b, N-(3-Methoxyphenyl)-2-naphthamide]")
"142 °C"
>>> endpoint_result("O=C(Nc1cccc(C(F)(F)F)c1)c1ccc2ccccc2c1 [Compound 37b]")
"150 °C"
>>> endpoint_result("O=C(NC1CCCCCCC1)c1ccc2ccccc2c1 [Compound 27, N-Cyclooctyl-2-naphthamide]")
"145 to 146 °C"
>>> endpoint_result("CC(C)NC(=O)c1ccc2ccccc2c1 [Compound 20, N-Isopropyl-2-naphthamide]")
"174 to 176 °C"
>>> endpoint_result("COc1ccccc1NC(=O)c1ccc2ccccc2n1 [Compound 13a]")
"111 to 112 °C"

Form: molecule = O=C(Nc1ccc(F)cc1)c1ccc2ccccc2c1 [Compound 34c, N-(4-Fluorophenyl)-2-naphthamide] ; melting point = 191 °C

Form: molecule = O=C(Nc1cccc(C(F)(F)F)c1)c1ccc2ccccc2n1 [Compound 18b] ; melting point = 121 to 122 °C

Form: molecule = Cc1cccc(NC(=O)c2ccc3ccccc3c2)c1 [Compound 33b, N-(3-Methylphenyl)-2-naphthamide] ; melting point = 160 °C

Form: molecule = Cc1ccccc1NC(=O)c1ccc2ccccc2c1 [Compound 33a, N-(2-Methylphenyl)-2-naphthamide] ; melting point = 146 °C

Form: molecule = O=C(Nc1cccc(F)c1)c1ccc2ccccc2c1 [Compound 34b, N-(3-Fluorophenyl)-2-naphthamide] ; melting point = 167 °C

Form: molecule = O=C(Nc1ccccc1[N+](=O)[O-])c1ccc2ccccc2n1 [Compound 19a, N-(2-Nitrophenyl)quinoline-2-carboxamide] ; melting point = 181 to 182 °C

Form: molecule = O=C(Nc1cccc(Cl)c1)c1ccc2ccccc2n1 [Compound 16b] ; melting point = 127 to 128 °C

Form: molecule = O=C(Nc1cccc(F)c1)c1ccc2ccccc2n1 [Compound 15b] ; melting point = 126 to 127 °C

Form: molecule = O=C(NC1CCCCCCC1)c1ccc2ccccc2n1 [Compound 8, N-Cyclooctylquinoline-2-carboxamide] ; melting point = 72 to 73 °C

* * *

Endpoint name: melting point

Some compounds with recorded melting point:
>>> endpoint_result("Cc1cccc(NC(=O)c2ccc3ccccc3n2)c1 [Compound 14b]")
"82 to 83 °C"
>>> endpoint_result("O=C(Nc1cccc([N+](=O)[O-])c1)c1ccc2ccccc2c1 [Compound 38b, N-(3-Nitrophenyl)-2-naphthamide]")
"177 °C"
>>> endpoint_result("O=C(NCCc1ccccc1)c1ccc2ccccc2c1 [Compound 30, N-(2-Phenylethyl)-2-naphthamide]")
"133 to 134 °C"
>>> endpoint_result("O=C(Nc1ccccc1F)c1ccc2ccccc2n1 [Compound 15a]")
"116 to 117 °C"

Form: compound = COc1ccccc1NC(=O)c1ccc2ccccc2c1 [Compound 32a, N-(2-Methoxyphenyl)-2-naphthamide] ; melting point = 82 °C

Form: compound = O=C(Nc1ccc(Br)cc1)c1ccc2ccccc2n1 [Compound 17c, N-(4-Bromophenyl)quinoline-2-carboxamide] ; melting point = 157 to 158 °C

Form: compound = O=C(Nc1ccccc1F)c1ccc2ccccc2c1 [Compound 34a, N-(2-Fluorophenyl)-2-naphthamide] ; melting point = 122 °C

Form: compound = Cc1ccc(NC(=O)c2ccc3ccccc3n2)cc1 [Compound 14c] ; melting point = 107 to 108 °C

Form: compound = O=C(NCc1ccccc1)c1ccc2ccccc2n1 [Compound 10, N-Benzylquinoline-2-carboxamide] ; melting point = 123 to 124 °C

Form: compound = O=C(Nc1cccc(Br)c1)c1ccc2ccccc2c1 [Compound 36b, N-(3-Bromophenyl)-2-naphthamide] ; melting point = 193 °C

* * *

Endpoint name: melting point

Some compounds with recorded melting point:
>>> endpoint_result("O=C(Nc1ccc(C(F)(F)F)cc1)c1ccc2ccccc2n1 [Compound 18c]")
"147 to 148 °C"
>>> endpoint_result("O=C(NC1CCCCC1)c1ccc2ccccc2c1 [Compound 25, N-Cyclohexyl-2-naphthamide]")
"184 to 185 °C"
>>> endpoint_result("O=C(Nc1ccc([N+](=O)[O-])cc1)c1ccc2ccccc2c1 [Compound 38c, N-(4-Nitrophenyl)-2-naphthamide]")
"200 °C"

Next, consider the following compound.
Form: compound = O=C(NC1CCCC1)c1ccc2ccccc2c1 [Compound 24, N-Cyclopentyl-2-naphthamide] ; melting point = 190 to 191 °C

* * *

System: M. avium complex CIT19/06
Assay: In vitro antimycobacterial evaluation (alamarBlue)
Format: cell-based
Details: Mycobacterium avium, 120 h; CIT19/06; 5 days; read-out: MIC/IC90 M. avium complex
Hi! Could you tag entries with MIC below 500 µM as label 1, and those at or above as label 0? Much appreciated.

>>> label_value("COc1ccccc1NC(=O)c1ccc2ccccc2c1 [Compound 32a, N-(2-Methoxyphenyl)-2-naphthamide]")
"label 1"

input: Please indicate whether the reported MIC of NNC(=O)c1ccncc1 [INH, isoniazid, reference compound] is strictly below 500 µM.
output: label 1

input: Please indicate whether the reported MIC of O=C(NC1CCCCC1)c1ccc2ccccc2n1 [Compound 6, N-Cyclohexylquinoline-2-carboxamide] is strictly below 500 µM.
output: label 0

input: Please indicate whether the reported MIC of O=C(NCCc1ccccc1)c1ccc2ccccc2n1 [Compound 11, N-(2-Phenylethyl)quinoline-2-carboxamide] is strictly below 500 µM.
output: label 1

input: Please indicate whether the reported MIC of O=C(NC1CCCCCC1)c1ccc2ccccc2n1 [Compound 7, N-Cycloheptylquinoline-2-carboxamide] is strictly below 500 µM.
output: label 1

input: Please indicate whether the reported MIC of CC(C)NC(=O)c1ccc2ccccc2n1 [Compound 1, N-Isopropylquinoline-2-carboxamide] is strictly below 500 µM.
output: label 0

* * *

Parameter: melting point. Scope: all listed entries.
Give a bare numeral; the unit °C is implied.

>>> endpoint_result("O=C(Nc1cccc(O)c1)c1ccc2ccccc2c1 [Compound 31b, N-(3-Hydroxyphenyl)-2-naphthamide]")
194
>>> endpoint_result("O=C(Nc1ccc(C(F)(F)F)cc1)c1ccc2ccccc2c1 [Compound 37c]")
224
>>> endpoint_result("O=C(Nc1ccccc1Br)c1ccc2ccccc2c1 [Compound 36a, N-(2-Bromophenyl)-2-naphthamide]")
123

Form: compound = O=C(Nc1ccccc1Cl)c1ccc2ccccc2c1 [Compound 35a, N-(2-Chlorophenyl)-2-naphthamide] ; melting point = 116

* * *

System: M. kansasii CIT11/06
Assay: In vitro antimycobacterial evaluation (alamarBlue)
Format: cell-based
Settings: Mycobacterium kansasii, 120 h; CIT11/06; 5 days; read-out: MIC/IC90 M. kansasii
Endpoint name: MIC (µM)
Give a bare numeral; the unit µM is implied.

Form: compound = O=C(NC1CCCCC1)c1ccc2ccccc2n1 [Compound 6, N-Cyclohexylquinoline-2-carboxamide] ; MIC = 520

Form: compound = COc1ccccc1NC(=O)c1ccc2ccccc2c1 [Compound 32a, N-(2-Methoxyphenyl)-2-naphthamide] ; MIC = 451

Form: compound = CCCCCCCCCCCCNC(=O)c1ccc2ccccc2n1 [Compound 2, N-Dodecylquinoline-2-carboxamide] ; MIC = 734

Form: compound = CC(C)NC(=O)c1ccc2ccccc2n1 [Compound 1, N-Isopropylquinoline-2-carboxamide] ; MIC = 1170

Form: compound = O=C(c1ccc2ccccc2c1)N1CCCC1 ; MIC = 111

Form: compound = O=C(NC1CCCCCC1)c1ccc2ccccc2n1 [Compound 7, N-Cycloheptylquinoline-2-carboxamide] ; MIC = 466

Form: compound = O=C(NCCc1ccccc1)c1ccc2ccccc2n1 [Compound 11, N-(2-Phenylethyl)quinoline-2-carboxamide] ; MIC = 452

Form: compound = O=C(c1ccc2ccccc2n1)N1CCCC1 ; MIC = 111

* * *

System: human monocytic leukemia THP-1 cells
Details: human, 24 h
Endpoint name: LD50

>>> endpoint_result("O=C(c1ccc2ccccc2n1)N1CCCC1 [Compound 3, 2-(Pyrrolidin-1-ylcarbonyl)quinoline]")
">100 µmol/L"
>>> endpoint_result("O=C(c1ccc2ccccc2c1)N1CCCC1 [Compound 22, 1-(2-Naphthoyl)pyrrolidine]")
">100 µmol/L"
>>> endpoint_result("O=C(NCCc1ccccc1)c1ccc2ccccc2n1 [Compound 11, N-(2-Phenylethyl)quinoline-2-carboxamide]")
">100 µmol/L"

Next, consider the following compound.
Form: compound = O=C(NC1CCCCCC1)c1ccc2ccccc2n1 [Compound 7, N-Cycloheptylquinoline-2-carboxamide] ; LD50 = 62 ± 4.5 µmol/L

* * *

Parameter: melting point. Scope: all listed entries.

Some compounds with recorded melting point:
>>> endpoint_result("O=C(Nc1ccc(F)cc1)c1ccc2ccccc2n1 [Compound 15c]")
"115 to 116 °C"
>>> endpoint_result("O=C(NC1CCCCCC1)c1ccc2ccccc2c1 [Compound 26, N-Cycloheptyl-2-naphthamide]")
"157 to 158 °C"
>>> endpoint_result("O=C(NC1CCCC1)c1ccc2ccccc2n1 [Compound 5, N-Cyclopentylquinoline-2-carboxamide]")
"63 to 64 °C"
>>> endpoint_result("O=C(NCc1ccccc1)c1ccc2ccccc2c1 [Compound 29, N-Benzyl-2-naphthamide]")
"138 to 139 °C"

Form: compound = CC(C)NC(=O)c1ccc2ccccc2n1 [Compound 1, N-Isopropylquinoline-2-carboxamide] ; melting point = 75 to 76 °C

Form: compound = O=C(Nc1ccccc1Cl)c1ccc2ccccc2n1 [Compound 16a] ; melting point = 130 to 131 °C
